TARGET OR TEST SYSTEM: T1, human C5 (human, UniProt P01031 19-673; P01031 678-1676, Beta and alpha chains are disulfide-linked and the protein is glycosylated.)
T1 construct: Either in-house recombinant C5 or plasma derived C5 (CALBIOCHEM) was used; also called recombinant human C5; plasma derived human C5
ASSAY SUMMARY: Biacore, captured antibody, pH 7.4, 37 C;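 also: biacore binding response of anti-C5 antibody light chain variants captured on chip with human C5 injected, ACES running buffer containing 1.2 mM CaCl₂, parent light chain antibody set to 100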
# cutoff 50% applies to % binding (parent = 100); >= gives true, < gives false

BINDER	CATEGORY LABEL
CFP0017 17L 93R (antibody, V domains shown) VH: QVQLVQSGAEVKKPGSSVKVSCKASGGTFSSYAISWVRQAPGQGLEWMGGIIPIFGTANYAQKFQGRVTITADESTSTAYMELSSLRSEDTAVYYCARGGWWGGALDYWGQGTLVTVSS VL: DIQMTQSPSSLSASVGDRVTITCRASQSIEDDLAWYQQKPGKAPKLLIYHASSLQSGVPSRFSGSGSGTDFTLTISSLQPEDFATYYCQQSDRYPLTFGQGTKVEIK	true
CFP0015 15L 93D (antibody, V domains shown) VH: QVQLLESGGGLVQPGGSLRLSCAASGFTFSSYAMSWVRQAPGKGLEWVSAISGSGGSTYYADSVKGRFTISRDNSKNTLYLQMNSLRAEDTAVYYCARGDQIWYDQWYYFDMWGQGTLVTVSS VL: DIQMTQSPSSLSASVGDRVTITCRASQSIEDDLAWYQQKPGKAPKLLIYEASNLQSGVPSRFSGSGSGTDFTLTISSLQPEDFATYYCQQYDDSPLTFGQGTKVEIK	false
CFP0011 11L 32N (antibody, V domains shown) VH: QVQLVQSGAEVKKPGSSVKVSCKASGGTFSSYAISWVRQAPGQGLEWMGGIIPIFGTANYAQKFQGRVTITADESTSTAYMELSSLRSEDTAVYYCARDMSEFLGWSNYYSYPMDVWGQGTTVTVSS VL: DIQMTQSPSSLSASVGDRVTITCRASQSIEDNLAWYQQKPGKAPKLLIYHASSLQSGVPSRFSGSGSGTDFTLTISSLQPEDFATYYCQQSDNSPYTFGQGTKVEIK	false
CFP0015 15L 34N (antibody, V domains shown) VH: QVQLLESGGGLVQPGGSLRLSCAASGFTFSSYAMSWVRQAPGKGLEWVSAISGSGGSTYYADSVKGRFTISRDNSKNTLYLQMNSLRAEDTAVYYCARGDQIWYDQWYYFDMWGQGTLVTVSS VL: DIQMTQSPSSLSASVGDRVTITCRASQSIEDDLNWYQQKPGKAPKLLIYEASNLQSGVPSRFSGSGSGTDFTLTISSLQPEDFATYYCQQYDSSPLTFGQGTKVEIK	true
CFP0021 21L 31N (antibody, V domains shown) VH: QVQLVESGGGLVQPGGSLRLSCAASGFTFSDHYMDWVRQAPGKGLEWVGRTRNKANSYTTEYAASVKGRFTISRDDSKNSLYLQMNSLKTEDTAVYYCARTGMMYWGIFDVWGQGTLVTVSS VL: DIQMTQSPSSLSASVGDRVTITCRASQSIENDLAWYQQKPGKAPKLLIYHASTLQSGVPSRFSGSGSGTDFTLTISSLQPEDFATYYCQQHDSYPLTFGQGTKVEIK	true

The reported numbers originate from patent US20180016327A1.
